Let's look at some binders and their measured peptide exchange yield.
# subjectOfTest: T1, HLA-A*02:01 (human)
# T1 construct: Peptide-receptive MHC class I monomer made by UV cleavage of a UV-sensitive ligand
# assayText: UV ligand exchange ELISA; exchange yield grade

Here's what some known entries look like.
Form: binder = FLINTNSEL ; peptide exchange yield = > 75%

Recorded result, ILHAQTLKI , peptide exchange yield: 50 to 75%

Form field peptide exchange yield, entry SLMDLQERL : 50 to 75%

Measured peptide exchange yield, FAFSGVLRA : 20 to 50%

Per the records, this binder ( KAYNRVIFV ) has peptide exchange yield equal to 50 to 75%

The recorded peptide exchange yield for FLLPKVQSI is > 75%

Others:
Record summary for ILAAVETRL : reported peptide exchange yield = 50 to 75%

Sample AMPDSPAEV ; peptide exchange yield observed: > 75%
